test.method.notes: chemical genetic growth profiling, strain panel (AID 1159580);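 further: tested at 20 µM; growth read once vehicle control cultures reached saturation at 30 °C; 1 = growth at the plate median or of vehicle wells; lower values mean less growth of the strain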
particulars: S. cerevisiae deletion strains, growth OD, locus YBR171W, strain sec66, hits give low values
The campaign covered roughly 5,500 compounds. About 2,000 (36%) were called active. About 18% were inconclusive and are not listed. The list shows a part of the results.
measured.property: normalized growth

In: I have this molecule here, C[C@]12CCC3c4ccc(O)cc4CCC3C1CCC2=O (stereo partly drawn) , and I need its recorded normalized growth.
Out: 0.992 (inactive)

In: I have this molecule here, CCN1C[C@@]2(COC)C3[C@@H](OC)[C@H]4[C@@H]1[C@]3(C(OC)C[C@H]2O)C1C[C@@]2(O)[C@H](OC(=O)c3ccccc3)C1[C@]4(OC(C)=O)[C@@H](O)[C@@H]2OC (stereo partly drawn) , and I need its recorded normalized growth.
Out: 1.01 (inactive)

In: I have this molecule here, `O=C(O)[C@@H](S)[C@@H](S)C(=O)O` , and I need its recorded normalized growth.
Out: 0.976 (inactive)

In: I have this molecule here, COC(=O)[C@@H]1OC(=O)C2OC23[C@@]1(C)CCC1[C@]2(C)C(C[C@@H](O)[C@]13C)C(C)(C)[C@H](OC(C)=O)C[C@@H]2OC(C)=O (stereo partly drawn) , and I need its recorded normalized growth.
Out: 0.995 (inactive)

In: I have this molecule here, `CCCn1c(=O)c2[nH]c(C3CCCC3)nc2n(CCC)c1=O` , and I need its recorded normalized growth.
Out: 0.976 (inactive)

In: I have this molecule here, `NCCCCC(=O)O` , and I need its recorded normalized growth.
Out: 1.02 (inactive)

In: I have this molecule here, COc1cc2c(cc1OC)C1(O)C(=O)c3ccc(O)c(C(=O)O)c3OC1CO2 (stereo not drawn) , and I need its recorded normalized growth.
Out: 0.996 (inactive)

In: I have this molecule here, `COc1ccc(-c2oc3cc(OC)c(OC)c(OC)c3c(=O)c2OC)cc1OC` , and I need its recorded normalized growth.
Out: 0.972 (inactive)

In: I have this molecule here, `COc1ccc(-c2oc3cc(OC)c(OC)c(OC)c3c(=O)c2OC)cc1` , and I need its recorded normalized growth.
Out: 0.978 (inactive)

In: I have this molecule here, CC(C)=CC1C(C(=O)OCc2cccc(Oc3ccccc3)c2)C1(C)C (stereo not drawn) , and I need its recorded normalized growth.
Out: 1.02 (inactive)

In: I have this molecule here, `COc1cc(NS(C)(=O)=O)ccc1Cc1c2ccccc2nc2ccccc12` , and I need its recorded normalized growth.
Out: 1.02 (inactive)

In: I have this molecule here, CCCCC(=O)O[C@]1(C(=O)CO)CCC2C3CCC4=CC(=O)CC[C@]4(C)C3[C@@H](O)C[C@@]21C (stereo partly drawn) , and I need its recorded normalized growth.
Out: 0.976 (inactive)

In: I have this molecule here, C=NC(C(=O)NC1C(=O)N2C1SC(C)(C)C2C(=O)O)c1ccccc1 (stereo not drawn) , and I need its recorded normalized growth.
Out: 1.02 (inactive)

In: I have this molecule here, CCC(=O)OC1[C@@H]2CC3=C4CC(=O)O[C@@H](c5ccoc5)[C@]4(C)CCC3[C@@](C)(C2=O)[C@@H](CC(=O)OC)C1(C)C (stereo partly drawn) , and I need its recorded normalized growth.
Out: 0.983 (inactive)

In: I have this molecule here, `NC(N)=NCCCCN=C(N)N` , and I need its recorded normalized growth.
Out: 0.986 (inactive)

In: I have this molecule here, `CC(=O)OC/C=C(\C)CC/C=C(\C)CC/C=C(\C)CC/C=C(\C)CC/C=C(\C)CC/C=C(\C)CC/C=C(\C)CC/C=C(\C)CCC=C(C)C` , and I need its recorded normalized growth.
Out: 0.98 (inactive)

In: I have this molecule here, `O=C1CCCN1CC#CCN1CCCC1` , and I need its recorded normalized growth.
Out: 1.02 (inactive)

In: I have this molecule here, COc1ccc2c(c1)OCC(Cc1ccc(OC)c(OC)c1)C2=O (stereo not drawn) , and I need its recorded normalized growth.
Out: 0.96 (inactive)

In: I have this molecule here, O=c1[nH]c(=O)n(C2C[C@H](O)[C@@H](CO)O2)cc1C(F)(F)F (stereo partly drawn) , and I need its recorded normalized growth.
Out: 0.965 (inactive)

In: I have this molecule here, CC12CCC3C(=CCc4cc(O)ccc43)C1CCC2=O (stereo not drawn) , and I need its recorded normalized growth.
Out: 0.986 (inactive)

In: I have this molecule here, `CN(C)C(=O)Oc1ccc[n+](C)c1` , and I need its recorded normalized growth.
Out: 1 (inactive)

In: I have this molecule here, CC(=O)C1CCC2C3CCC4C[C@H](O)CCC4(C)C3C[C@H](O)C12C (stereo partly drawn) , and I need its recorded normalized growth.
Out: 0.961 (inactive)

In: I have this molecule here, CC1[C@H](C)OC(=O)CC(O)CC(O)CC(O)CCC(O)C(O)C[C@]2(O)CC(O)C(C(=O)O)C(CC(OC3O[C@H](C)[C@@H](O)[C@H](N)[C@@H]3O)/C=C/C=C/C=C/C=C/CC/C=C/C=C/[C@H](C)[C@H]1O)O2 (stereo partly drawn) , and I need its recorded normalized growth.
Out: 0.0858 (active)

In: I have this molecule here, `Cc1nnc(NS(=O)(=O)c2ccc(N)cc2)s1` , and I need its recorded normalized growth.
Out: 1 (inactive)

In: I have this molecule here, O=c1cccc2n1CC1CC2CN2CCCC[C@@H]12 (stereo partly drawn) , and I need its recorded normalized growth.
Out: 0.974 (inactive)

In: I have this molecule here, Cc1cccc(C)c1NC(=O)C1CCCCN1C (stereo not drawn) , and I need its recorded normalized growth.
Out: 0.977 (inactive)

In: I have this molecule here, C[C@]12CCC3c4ccc(OC(=O)c5ccccc5)cc4CCC3C1CCC2=O (stereo partly drawn) , and I need its recorded normalized growth.
Out: 0.977 (inactive)

In: I have this molecule here, Clc1ccc(C(Cn2ccnc2)OCc2ccsc2Cl)c(Cl)c1 (stereo not drawn) , and I need its recorded normalized growth.
Out: 0.077 (active)

In: I have this molecule here, `CC[C@@H]1OC(=O)C[C@@H](O)[C@H](C)[C@@H](O[C@@H]2O[C@H](C)[C@@H](O)[C@H](N(C)C)[C@H]2O)[C@@H](CCN2C[C@H](C)C[C@H](C)C2)C[C@@H](C)C(=O)/C=C/C(C)=C\[C@@H]1CO[C@@H]1O[C@H](C)[C@@H](O)[C@@H](OC)[C@H]1OC` , and I need its recorded normalized growth.
Out: 1.01 (inactive)

In: I have this molecule here, O=C(O)CCC1NCC2CC1CN1CCCCC21 (stereo not drawn) , and I need its recorded normalized growth.
Out: 0.999 (inactive)

In: I have this molecule here, O=C(O)C(O)C(O)C(=O)O (stereo not drawn) , and I need its recorded normalized growth.
Out: 0.986 (inactive)

In: I have this molecule here, CC12CCCCC1(Br)[N+](=O)N2[O-] (stereo not drawn) , and I need its recorded normalized growth.
Out: 0.964 (inactive)

In: I have this molecule here, COc1ccc2c(c1)OCC(Cc1ccc(O)c(OC)c1)C2=O (stereo not drawn) , and I need its recorded normalized growth.
Out: 0.969 (inactive)

* * *

Consider the following compounds; for each one, report its normalized growth.
test.method.notes: chemical genetic growth profiling, strain panel (AID 1159580);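 further: tested at 20 µM; growth read once vehicle control cultures reached saturation at 30 °C; 1 = growth at the plate median or of vehicle wells; lower values mean less growth of the strain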
particulars: S. cerevisiae deletion strains, growth OD, locus YOL147C, strain pex11, hits give low values
About 2,000 (36%) of roughly 5,500 compounds were called active. About 18% were inconclusive and are not listed. The list shows a part of the results.
Reply with the value as a number alone.

In: I have this compound here, CCCCCCCCCCCCCC(=O)OC1C(C)C2(O)C(C=C(CO)CC3(O)C(=O)C(C)=CC32)C2C(C)(C)C12OC(C)=O (centres undefined) , and I need its recorded normalized growth.
Out: 0.99

In: I have this compound here, CC12CCC3C(=CCc4cc(O)ccc43)C1CCC2=O (centres undefined) , and I need its recorded normalized growth.
Out: 1

In: I have this compound here, CC(=O)C1CC[C@H]2C3CC[C@H]4C[C@H](O)CC[C@]4(C)C3CC[C@]12C (some centres undefined) , and I need its recorded normalized growth.
Out: 0.994

In: I have this compound here, `CC(=O)O[C@]1(C)CC[C@@]23CC1C(C)(C)[C@@H]2CC[C@H]3C` , and I need its recorded normalized growth.
Out: 1

In: I have this compound here, CCC(=O)OC1[C@@H]2CC3=C4CC(=O)O[C@@H](c5ccoc5)[C@]4(C)CCC3[C@@](C)(C2=O)[C@@H](CC(=O)OC)C1(C)C (some centres undefined) , and I need its recorded normalized growth.
Out: 1.02

In: I have this compound here, `CC(C)(S)[C@@H](N)C(=O)O` , and I need its recorded normalized growth.
Out: 0.984

In: I have this compound here, `c1ccc2c(CC3=NCCN3)cccc2c1` , and I need its recorded normalized growth.
Out: 1.02

In: I have this compound here, `COP(=S)(OC)Oc1ccc([N+](=O)[O-])cc1` , and I need its recorded normalized growth.
Out: 0.994

In: I have this compound here, CC(C)/C(O)=C1/C(=O)O[C@@H](c2ccoc2)[C@]2(C)C(O)[C@@H](O)[C@@]34OC5(C)OC67CC(C)(C(O)[C@]6(O)[C@@H](O)[C@]3(O5)C12)[C@H](CC(=O)O)[C@]74C (some centres undefined) , and I need its recorded normalized growth.
Out: 1.01

In: I have this compound here, C[C@]12CCC3c4ccc(O)cc4CCC3C1CCC2=O (some centres undefined) , and I need its recorded normalized growth.
Out: 1

In: I have this compound here, O=C(O)C(O)C(O)C(O)C(O)C(=O)O (centres undefined) , and I need its recorded normalized growth.
Out: 0.991

In: I have this compound here, `N[C@@H](C(=O)O)[C@@H](O)[C@H](O)[C@H](O)CO` , and I need its recorded normalized growth.
Out: 1.01

In: I have this compound here, C[C@]12CCC3c4ccc(OC(=O)CCC(=O)O)cc4CCC3C1CCC2=O (some centres undefined) , and I need its recorded normalized growth.
Out: 0.978

In: I have this compound here, `CC(=O)NCCc1c[nH]c2ccc(O)cc12` , and I need its recorded normalized growth.
Out: 0.993

From: PubChem BioAssay AID1159580
